These entries and their values trace back to PubChem BioAssay AID1276.

Assignment: determine reported activation for the given compounds.
measurement_description: activators of APP 5'UTR luciferase reporter, primary screen, SH-SY5Y cells (AID 1276)
condition_label: SH-SY5Y APP 5'UTR luciferase reporter, luminescence; at 2 µM; hits give high values; zero percent = DMSO vehicle wells
Out of some 190,000 compounds screened, about 2,000 (1.1%) were called active. Many of the other results were omitted from the sample, so actives are more common in it than they were.

Quick batch: activation for everything below.
1. COc1ccc(OCCNS(=O)(=O)Cc2ccccc2)cc1
2. NC(=NC(=O)c1ccccc1)N1CCOCC1
3. O=C(Nc1nc2ccc(S(=O)(=O)N3CCCC3)cc2s1)C1CCCO1 (centres undefined)
4. CCOC(=O)c1c(/N=C/C2C(=O)CC(C)(C)CC2=O)sc(C)c1C
5. c1ccc(Nc2nc(N3CCOCC3)c3ccccc3n2)cc1

1. 8.23% (inactive)
2. 9.73% (inactive)
3. 2.99% (inactive)
4. 2.63% (inactive)
5. 7.27% (inactive)

Please look at the items below and tell me activation for each one, in order.
1. COc1ccc(OC)c(C(=O)CSc2nnc(-c3cccs3)o2)c1
2. CCN(CC)CCNC(=O)c1ccc(NS(=O)(=O)c2ccc3c(c2)OCCO3)cc1
3. COc1ccc(-n2c(C)cc(C(=O)CSc3nnc(-c4cccs4)o3)c2C)cc1
4. O=C(c1cnn(-c2ccc(Cl)cc2)c1)c1ccccc1O
5. O=C(Nc1ccc2c(c1)OCCO2)C1CCCN(c2ncccn2)C1 (centres undefined)
6. Cc1ccnc(N2CCCC(C(=O)Nc3cc(F)ccc3C)C2)n1 (centres undefined)
7. O=c1[nH]c2ccccc2s1
8. Cc1cc(C)nc(N2CCC(C(=O)Nc3ccc4c(c3)OCCO4)CC2)n1

["-1.75% (inactive)", "12.6% (inactive)", "-0.59% (inactive)", "177% (active)", "159% (active)", "30.3% (inactive)", "-19.6% (inactive)", "2.98% (inactive)"]

Look at each compound and report its activation.
1. O=C(CSC(=S)N1CCOCC1)c1ccccc1
2. Cc1ccc(NC(=O)c2csc3c2CCCC3)cc1
3. Cc1cc(C)c2nc(NC(=O)C3CCCO3)sc2c1 (centres undefined)
4. CN(C(=O)CSc1nncc2ccccc12)C1CCCCC1
5. Cc1cc(C)n(CCNCc2c(C(=O)N3C[C@@H](C)O[C@@H](C)C3)nc3ccc(Cl)cn23)n1
6. CCCCCOc1ccc(/C=C/C(=O)NCCc2nc3ccccc3[nH]2)cc1OC
7. Cc1cc(Br)ccc1NC(=O)C1CCCO1 (centres undefined)

1. 139% (active)
2. 232% (active)
3. 159% (active)
4. 56.8% (inactive)
5. 13.1% (inactive)
6. -0.79% (inactive)
7. -29.7% (inactive)

Hey, can you go through the list below and give me activation for every item?
1. COC(=O)c1sccc1NC(=O)c1csc2c1CCCC2
2. COc1ccccc1/C=N\Nc1cc(C)nc(-n2nc(C)cc2C)n1
3. CN(C)S(=O)(=O)c1ccc2oc(SCC(=O)Nc3ccccc3F)nc2c1
4. Cc1nn(Cc2ccc(F)cc2)c(C)c1NC(=O)c1cccnc1Cl

1. -8.07% (inactive)
2. -3.23% (inactive)
3. 135% (active)
4. 10.3% (inactive)

====

measurement_description: activators of APP 5'UTR luciferase reporter, primary screen, SH-SY5Y cells (AID 1276)
condition_label: SH-SY5Y APP 5'UTR luciferase reporter, luminescence; at 2 µM; zero percent = DMSO vehicle wells
The campaign covered roughly 190,000 compounds. About 2,000 (1.1%) were called active.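 How the source made its calls: active means activation above a set limit, based on mean plus 3 SD of controls (cut at about 140% in these data); inconclusive means one replicate above the limit, the other below; inactive means the rest.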 This excerpt belongs to a sample that is enriched for actives.
Can you answer with just one of these options? 1 for active, 0 for inactive

Some solved cases for reference:
1) O=C(Nc1ccn(Cc2ccccc2)n1)c1cccc(F)c1 :: 1
2) Cc1cc(C)n(-c2ccc(C(=O)O)cc2[N+](=O)[O-])n1 :: 0
3) Cc1noc(C)c1/C=N/Nc1ccc2ccccc2n1 :: 1
4) O=C(NCc1nnc(SCC(=O)N2CCC(Cc3ccccc3)CC2)o1)c1ccco1 :: 0
5) Brc1ccc(-c2csc(N/N=C/c3ccc4c(c3)OCO4)n2)cc1 :: 0
6) Cc1ccc(N=Cc2c(O)n(-c3nccs3)c(=O)c3ccccc23)c(C)c1 :: 0
7) Cc1nc2ccccc2cc1C(=O)N/N=C/c1ccc([N+](=O)[O-])cc1 :: 0
8) C=CCSc1nc2ccccc2[nH]1 :: 0

Test call, this compound: Cc1cc(C)nc(N/N=C/c2c(C)oc3ccccc23)n1
0

Recorded call for Cc1cnc(C(=O)N2CCCC(C(=O)c3ccc(C(F)(F)F)cc3)C2)cn1 (stereo unspecified) ?
0

Returns: the outcome recorded for C=CCO/N=C/C1=C(O)C(C(=O)OC)C(C)(C)CC1=O (stereo unspecified) in this assay.
0

====

measurement_description: activators of APP 5'UTR luciferase reporter, primary screen, SH-SY5Y cells (AID 1276)
condition_label: SH-SY5Y APP 5'UTR luciferase reporter, luminescence; at 2 µM; hits give high values; zero percent = DMSO vehicle wells
The campaign covered roughly 190,000 compounds. About 2,000 (1.1%) were called active. Shown is part of a subset that was picked to be rich in actives.
Assignment: determine reported activation for the given molecules.
Give bare numbers, in %.

Solved entries (count: 6):
1. COc1cc(OC)c(-n2cc(-c3ccc(Cl)cc3)[nH]c2=O)cc1Cl :: -7.27
2. O=C(O)CCCCc1nc2ccccc2s1 :: -11.6
3. CCCCOc1ccc(C(=O)NCc2ccco2)cc1 :: 4.26
4. CCC(=O)NC(=Nc1nc2ccccc2s1)NC(=O)CC :: 147
5. COCCNc1nc2nonc2nc1N1CCCC1c1nccs1 (stereo unspecified) :: 2.4
6. CC(=O)NCCc1nc2cc(NC(=O)c3ccccc3)ccc2n1C :: 55.4

Please supply activation for each of the following items, keeping them in order.
1. Cc1nn(-c2ccc([N+](=O)[O-])cc2)c(N)c1-c1ccccc1
2. Cc1cc(Oc2ccc(Cl)cc2)nc(SCC(=O)c2ccccc2)n1
3. COc1ccc(OC)c(/C=C/C(=O)OCC(=O)Nc2ccc3c(c2)OCCO3)c1

1: 152; 2: 11.5; 3: -19.2

Give measured activation for every item shown.
1. COc1ccccc1-c1cc(C(=O)N2CCCCC2)no1
2. O=C(Nc1ccccc1)Nc1nc2ccccc2s1
3. Oc1ccc(-c2csc(Nc3cccnc3)n2)cc1

113
212
17.7

Hey, can you go through the list below and give me activation for every item?
1. CC(C)(C)NC(=O)CN(C(=O)c1ccc(Cl)nc1)c1cccc2ccccc12
2. O=C(Nc1ccc(Cl)cn1)Nc1cccs1
3. CC(C)CC(=O)NC(=S)NCc1ccccc1
4. C=CCn1c(CCNC(=O)c2cccs2)n[nH]c1=S
5. CC(=O)Nc1ccc(-c2csc(NC(=O)Nc3ccccc3)n2)cc1
6. COc1ccc(-c2cn3ccsc3n2)cc1
7. O=C(Nc1nc2ccccc2s1)c1ccc2c(c1)OCO2

1. -19.3
2. 25.6
3. 9.6
4. -1.77
5. -14.7
6. 135
7. 183

List reported activation for each of these molecules:
1. CCC(C)NC(=O)Cn1nc(C(F)(F)F)c2c1CCC2 (stereo unspecified)
2. COc1ccc(/C=C/C(=O)Nc2ccc3c(c2)OCCO3)cc1OC
3. COc1cccc(/C=C/C(=O)Nc2ccc3c(c2)OCCO3)c1

-3.33
-0.48
168

I have 4 molecules here; please give me activation for each one.
1. Cc1cc(C)c2nc(NC(=O)c3ccc4c(c3)OCO4)sc2c1
2. COC(=O)c1nc2ccccc2s1
3. O=C(c1cc(-c2cccs2)on1)N1CCCCC1
4. CC(C)CC(=O)N/C(N)=N/c1nc2ccccc2s1

1. -8.57
2. -8.64
3. 138
4. 203

====

measurement_description: activators of APP 5'UTR luciferase reporter, primary screen, SH-SY5Y cells (AID 1276)
condition_label: SH-SY5Y APP 5'UTR luciferase reporter, luminescence; at 2 µM; hits give high values; zero percent = DMSO vehicle wells
In all, about 190,000 compounds went through this assay and about 2,000 (1.1%) were called active. The sample holds actives, similar compounds and a random draw of the others, so the mix is not that of the screen.
measured_metric: activation (%)
Give bare numbers, in %.

The cases that follow already have their activation on record.
1. N/C(=N\OC(=O)c1cc(-c2ccccc2)nc2ccccc12)c1ccncc1 :: 7.36
2. O=C(/C=C/c1ccccc1)c1ccoc1 :: 0.93
3. CC(=O)Nc1cccc(-c2csc(Nc3cccc(C)n3)n2)c1 :: 177

Would you be so kind as to report activation for each listed record?
1. CC(=O)c1ccc(-c2nnc(CCC(=O)N(C)Cc3cnc4ccccn34)o2)s1
2. COc1ccc(-c2csc(Nc3ccc(O)cc3)n2)cc1
3. N=C1C(c2nc3ccccc3s2)=C(O)CN1NC(=O)c1ccc([N+](=O)[O-])cc1
4. Cc1cc(C)c2nc(SCC(=O)N(C)C3CCS(=O)(=O)C3)cc(C)c2c1 (centres undefined)

1. -5.43
2. 120
3. 150
4. 11.6

Would you mind giving activation for every molecule in the list below?
1. CCOc1ncccc1C(=O)OCc1cn2cc(Cl)ccc2n1
2. CCOC(=O)CCCN1CC(O)=C(c2nc3ccccc3s2)C1=N
3. O=C(Nc1nc(-c2ccc(-c3ccccc3)cc2)cs1)c1cnccn1
4. COc1ccc(C2=NOC(COC(=O)c3ccc4ccccc4n3)C2)cc1 (centres undefined)
5. COc1cc(SC)ccc1C(=O)Nc1cc(C)ccn1
6. O=C(NCCOc1ccccc1)c1ccccc1

1. -0.86
2. -7.28
3. 11
4. 16.6
5. 220
6. 123
